Assay: amyloid nucleation score (Sup35N fusion, yeast selection) (log enrichment); library NNK2; higher = more nucleation; inactive = no reads after selection;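 also: zero at mode of non-aggregating sequences after 7 days selection at 30°C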
Below, each entry is listed alongside its reported amyloid nucleation score.

- sequence.text: "TSRDSRAL"
  amyloid nucleation score: -0.742
- sequence.text: "YLCPTSGKLCGSSGKTMVTV"
  amyloid nucleation score: -1.18
- sequence.text: "STHSGLSMT"
  amyloid nucleation score: 0.877
- sequence.text: "LVCGHRPNVAAGTQGDCGRW"
  amyloid nucleation score: 1.04
- sequence.text: "PQINMGVLAGGVYHYSTCGK"
  amyloid nucleation score: 0.196
- sequence.text: "TMSGCSLLCWEYNASQDLSN"
  amyloid nucleation score: -0.071

---

Experiment: amyloid nucleation score (Sup35N fusion, yeast selection) (log enrichment); library NNK2; higher = more nucleation; inactive = no reads after selection
measured.parameter: amyloid nucleation score

- substance: "NSLLVFQNNFGIETNGVNII"
  result: 0.94
- substance: "SHLKMDNPCLGF"
  result: -0.121
- substance: "SNGVAWQCNGNSYRIFCDTS"
  result: 7.52
- substance: "STLNSYS"
  result: -0.42
- substance: "ISHLRVLEQSLLAEWADNFP"
  result: 2.08
- substance: "YTYSHAYPRWTMFIWWHDLE"
  result: -0.378
- substance: "VGTILAPGGLWGMEVCWQTK"
  result: 3.06
- substance: "GKDCSRVNKHWCQRGRQGMV"
  result: 0.922
- substance: "TLENQVGSMSIGGFSGGYRR"
  result: 0.201

---

Assay: amyloid nucleation score (Sup35N fusion, yeast selection) (log enrichment); library NNK3; higher = more nucleation; inactive = no reads after selection

- sequence.text: "IDCGGFDDIRVVSGDDEKMW"
  amyloid nucleation score: "inactive"
- sequence.text: "INSSILGSCLWWFLFCF"
  amyloid nucleation score: 1.2
- sequence.text: "GWLLRCVSTLGGLKTLLC"
  amyloid nucleation score: "inactive"
- sequence.text: "TEFKAFHNCQINRSDTTLWL"
  amyloid nucleation score: 0.096
- sequence.text: "SRTVKSRGSAQQDCGRVLRD"
  amyloid nucleation score: "inactive"
- sequence.text: "YGSDGHHLA"
  amyloid nucleation score: "inactive"
- sequence.text: "LSVCVRPWRNKTDVVGNGNK"
  amyloid nucleation score: "inactive"
- sequence.text: "YIYLTQGTARNIDYT"
  amyloid nucleation score: 0.047
- sequence.text: "CVFCVNRTLLIVWIMVRY"
  amyloid nucleation score: "inactive"
- sequence.text: "ACCQTDRFRFEVALVGFVVG"
  amyloid nucleation score: "inactive"

---

Quick list: amyloid nucleation score per entry.
Experiment: amyloid nucleation score (Sup35N fusion, yeast selection) (log enrichment); library NNK1; higher = more nucleation; inactive = no reads after selection

- substance: "SDGASPFRWCFHSLRMVSAR"
  amyloid nucleation score: -0.647
- substance: "DAYVLD"
  amyloid nucleation score: 0.314
- substance: "NCMAISGITVLNMSWNNLKI"
  amyloid nucleation score: 6.61
- substance: "NGCVLLMVMVLTVDIAL"
  amyloid nucleation score: 2.78
- substance: "SYSINLPLLPRCN"
  amyloid nucleation score: 1.02
- substance: "RALVDRLSTS"
  amyloid nucleation score: 0.472
- substance: "SYAIPMVAIFQVEGHLGHPG"
  amyloid nucleation score: -0.211
- substance: "FTNPRINMSRFSLSFCPARY"
  amyloid nucleation score: 2.1
- substance: "CRYYRCSQKLDKLVTFTKKS"
  amyloid nucleation score: 0.722
- substance: "ISNFVGTTMIIQGSVNTVYK"
  amyloid nucleation score: 6.96
- substance: "SVLLKWMSYTKH"
  amyloid nucleation score: 2.66
- substance: "FTGRNSNMIFLSYWVCYYQN"
  amyloid nucleation score: 6.98
- substance: "SILKIALTH"
  amyloid nucleation score: -1.71
- substance: "GISNSMVRHYLCTTFIYKDA"
  amyloid nucleation score: 3.51
- substance: "TQCCGS"
  amyloid nucleation score: -0.448
- substance: "PVFGETGDY"
  amyloid nucleation score: -0.393
- substance: "SVLLEGFLSYPDLSTNLIHV"
  amyloid nucleation score: -0.416

---

Assay: amyloid nucleation score (Sup35N fusion, yeast selection) (log enrichment); library NNK1; higher = more nucleation; inactive = no reads after selection

- substance: "ALGYIPPRRCMTGSPPSVPR"
  amyloid nucleation score: 0.529
- substance: "FAGLSHWKPLDGTMGVGDRV"
  amyloid nucleation score: -0.526
- substance: "DNGVLQNNWVIMYCELHHGV"
  amyloid nucleation score: 5.69
- substance: "GQGALRVDCLVHRQVVSVVL"
  amyloid nucleation score: 0.176
- substance: "ALYSDRDI"
  amyloid nucleation score: 0.939
- substance: "IVMQVLTQTVMWIFYLNGSH"
  amyloid nucleation score: -0.254
- substance: "TCWHVSILN"
  amyloid nucleation score: 0.136
- substance: "PVLRAWYGRLFCRYSWLWQC"
  amyloid nucleation score: 0.274
- substance: "INVFNCCWRLIFVLEV"
  amyloid nucleation score: 2.72
- substance: "TRVSFYRSKFAFMFYYHVMV"
  amyloid nucleation score: 0.099
- substance: "CHLNFMCWPTAQDENMPIFG"
  amyloid nucleation score: -0.09
- substance: "PTTYNYSCVGIVSFDFSESI"
  amyloid nucleation score: 5.29
- substance: "QFAHKVYPMSSCLVNVA"
  amyloid nucleation score: -0.678
- substance: "GGFFKRL"
  amyloid nucleation score: 0.161
- substance: "LFNLFSRL"
  amyloid nucleation score: 0.335
- substance: "GEYLRLSIWGLDKDNKGVQ"
  amyloid nucleation score: -0.073
- substance: "TDRTQTYSTFASRGSDVTVT"
  amyloid nucleation score: 0.185
- substance: "SFRFNGGTFVHSSKTKP"
  amyloid nucleation score: 0.441
- substance: "RQARFSFDLRFP"
  amyloid nucleation score: 0.567
- substance: "TSALWEVLW"
  amyloid nucleation score: 0.191
- substance: "SVWCSFFVNAADHNIYRTIT"
  amyloid nucleation score: 1.11
- substance: "QGWKGSC"
  amyloid nucleation score: -0.385
- substance: "CYLCSSSF"
  amyloid nucleation score: 1.67
- substance: "LYDLNIKWWRGASLVECECL"
  amyloid nucleation score: 0.139
- substance: "REDWSTLEPYPHYDTAIGRS"
  amyloid nucleation score: 1.24
- substance: "VTRCVAVAFSLGYLVIKCAL"
  amyloid nucleation score: -0.243
- substance: "NPSGFRSTEWYV"
  amyloid nucleation score: -0.421
- substance: "RDAIYYKICLAQPRSF"
  amyloid nucleation score: -0.465
- substance: "WLVHFDHTPNTSL"
  amyloid nucleation score: -0.069
- substance: "TVTGFMF"
  amyloid nucleation score: -0.645

---

Assay: amyloid nucleation score (Sup35N fusion, yeast selection) (log enrichment); library NNK1; higher = more nucleation; inactive = no reads after selection
Each entry falls in a class defined on amyloid nucleation score; the bands are class 0 = under 0.05, class 1 = from 0.05 up to 0.7, class 2 = 0.7 and over

- substance: "KLRIRSWKVFTPNSLLVVAI"
  cat: "class 0"
- substance: "VLIINFLPVWWKTYLSMMIR"
  cat: "class 0"
- substance: "ADACVRFLRGYYFNGFPMRW"
  cat: "class 2"
- substance: "WSPTVAMLDGAVRGVAPATH"
  cat: "class 0"
- substance: "ILMFISVFYCFCRKTRYLNR"
  cat: "class 2"
- substance: "GGTCVRQFMVLDTHSHADEC"
  cat: "class 1"
- substance: "DNRVLVPRRAFNDHIWCMYV"
  cat: "class 0"
- substance: "YIVVCSIRNLGRINLRGSDT"
  cat: "class 1"
- substance: "INVIYNICFQVSW"
  cat: "class 2"
- substance: "GDRVAEFQFPLSYTRPELSL"
  cat: "class 0"
- substance: "LMTRSVIVIRLMEEKSAA"
  cat: "class 1"
- substance: "QFSAIIMSLSLLWSFMCAWE"
  cat: "class 0"
- substance: "IDSKFQPK"
  cat: "class 2"
- substance: "TSGIYRRSDFLERHIS"
  cat: "class 2"
- substance: "ALCYWNSTVD"
  cat: "class 0"
- substance: "GAYYGRSSKELGNNEGTGTG"
  cat: "class 1"
- substance: "FSLRLRDSWWAHSGRLYAYK"
  cat: "class 0"
- substance: "THGGCCQGFQPTQLQSLTHQ"
  cat: "class 1"
- substance: "GALGWWSSFVCEEAGKLTLR"
  cat: "class 2"
- substance: "CYALNWCRLPALHSFFQCRK"
  cat: "class 2"
- substance: "AISYDTYYTGELSSLWSGLS"
  cat: "class 1"
- substance: "ILSIYVSDAYKSMSETN"
  cat: "class 2"
- substance: "LLFGTHVPIRRGRFDASMIY"
  cat: "class 1"
- substance: "ITGLVRLFC"
  cat: "class 1"
- substance: "EITFPRAMWANRTTTMDRIM"
  cat: "class 0"
- substance: "NGVSTVEYVMFKFSIAFAMF"
  cat: "class 2"
- substance: "DYTDMYTC"
  cat: "class 1"
- substance: "NGYFYTTYASDVPRRYVPYL"
  cat: "class 1"
- substance: "LLFCRFRSWDRDHRWCRCD"
  cat: "class 2"
- substance: "IRFHCLHLVAVLTKTRVFEA"
  cat: "class 1"
- substance: "CSKRTTYYFPWFICELTRLV"
  cat: "class 0"
- substance: "PRRQETWANEGHGM"
  cat: "class 1"
- substance: "NKLGLLRVFKVRFPPCCCCD"
  cat: "class 0"
- substance: "EGTFRLID"
  cat: "class 0"
- substance: "EVYVRRRVSIQKEGVLHAQK"
  cat: "class 2"
- substance: "KRWYTCYVYVFRICMRVLCR"
  cat: "class 2"
- substance: "KLDGVVPDVYLSGRLPQAWL"
  cat: "class 1"
- substance: "EARWRQSC"
  cat: "class 1"
- substance: "FTVARYKGIYNFSQGRCA"
  cat: "class 0"
- substance: "VRDYAGPFSFPYRSLRSEWQ"
  cat: "class 1"
- substance: "MDRFRHNLILICLFLPLILV"
  cat: "class 0"
- substance: "SFCVFLMDMSRIGPETLSEW"
  cat: "class 2"
- substance: "FINLASVVSIVVLVT"
  cat: "class 2"
- substance: "WFRSGDNLRIM"
  cat: "class 2"
- substance: "QRMLDTLH"
  cat: "class 0"
- substance: "WFFAAVWVLEFYEFR"
  cat: "class 0"
- substance: "TGICLWLPAVVDAEES"
  cat: "class 0"
- substance: "LKSDMIADTTAL"
  cat: "class 2"
- substance: "YCDVSTYMSEHTISVAQAQS"
  cat: "class 1"
- substance: "IIISMFRGAGRIYSF"
  cat: "class 1"
- substance: "YCIASSVGWFVFVIWPLRKS"
  cat: "class 1"
- substance: "VLCLWISGLPVLCSVCDPLV"
  cat: "class 1"
- substance: "DSEQGRLIYICFRVTTIRAL"
  cat: "class 0"
- substance: "AEASKYVMYIKARCMQLMRS"
  cat: "class 0"
- substance: "FGEYSCGRREMPYCFLDYYL"
  cat: "class 1"
- substance: "VYRRIYNFECWSSKCMLGYP"
  cat: "class 0"
- substance: "KSLFNYCVFSDGL"
  cat: "class 2"
- substance: "IVCSGLCHIN"
  cat: "class 2"
- substance: "RIRWSVVVNV"
  cat: "class 0"
- substance: "VRLRDVILSKVATMSF"
  cat: "class 0"
- substance: "ARWWVRLEYC"
  cat: "class 1"
- substance: "LVAATP"
  cat: "class 2"
